experimental target: T1, human NKG2D-Fc fusion protein (human, UniProt P26718 73-216)
T1 construct: extracellular domain; also called recombinant human NKG2D-Fc; human recombinant NKG2D; not shown: human IgG1 Fc domain
T1 sequence (looked up): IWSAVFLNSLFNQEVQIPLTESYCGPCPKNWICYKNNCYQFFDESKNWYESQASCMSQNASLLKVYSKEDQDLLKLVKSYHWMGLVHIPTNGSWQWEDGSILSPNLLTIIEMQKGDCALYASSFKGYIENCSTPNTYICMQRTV
experiment description: ELISA on coated NKG2D-Fc
quantity: binding result

binder	quantity	reported value
ADI-29447 (antibody, V domains shown, also called F47) VH: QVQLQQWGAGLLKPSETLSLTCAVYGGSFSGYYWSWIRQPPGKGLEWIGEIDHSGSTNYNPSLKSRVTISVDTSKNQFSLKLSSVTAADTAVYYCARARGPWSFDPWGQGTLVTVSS VL: DIQMTQSPSTLSASVGDRVTITCRASQSISSWLAWYQQKPGKAPKLLIYKASSLESGVPSRFSGSGSGTEFTLTISSLQPDDFATYYCQQYDTFITFGGGTKVEIK	binding result	binds
ADI-28226 (antibody, V domains shown, also called C26) VH: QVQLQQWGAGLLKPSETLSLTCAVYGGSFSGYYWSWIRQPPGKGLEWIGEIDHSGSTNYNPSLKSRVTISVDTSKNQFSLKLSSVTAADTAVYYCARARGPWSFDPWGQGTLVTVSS VL: DIQMTQSPSTLSASVGDRVTITCRASQSISSWLAWYQQKPGKAPKLLIYKASSLESGVPSRFSGSGSGTEFTLTISSLQPDDFATYYCQQYGSFPITFGGGTKVEIK	binding result	binds
ADI-29424 (antibody, V domains shown) VH: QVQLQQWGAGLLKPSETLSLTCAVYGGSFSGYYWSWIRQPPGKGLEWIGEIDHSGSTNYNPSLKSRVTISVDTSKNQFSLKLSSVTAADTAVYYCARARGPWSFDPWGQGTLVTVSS VL: DIQMTQSPSTLSASVGDRVTITCRASQSISSWLAWYQQKPGKAPKLLIYKASSLESGVPSRFSGSGSGTEFTLTISSLQPDDFATYYCQQYDSFITFGGGTKVEIK	binding result	binds
